The following molecules are listed with their measured melting point values.

// below: answered molecules
- MOLECULE: "CONC(=O)Nc1ccc(-c2sc3c(c2CN[C@H](C)c2ccccc2)c(=O)n(-c2ccccc2)c(=O)n3Cc2c(F)cccc2F)cc1 (hydrate or solvate) [Reference Example 28]"
  EXPERIMENTAL VALUE: "180 to 182 °C"
- MOLECULE: "COCC(c1ccccc1)N(C)Cc1c(-c2ccc(NC(=O)NOC)cc2)sc2c1c(=O)n(-c1ccccc1)c(=O)n2Cc1c(F)cccc1F (stereo not drawn) [Reference Example 32]"
  EXPERIMENTAL VALUE: "169 to 172 °C"

Next:
Query: Given the molecule CONC(=O)Nc1ccc(-c2sc3c(c2CN[C@@H](C)c2ccccc2)c(=O)n(-c2ccccc2)c(=O)n3Cc2c(F)cccc2F)cc1 [Reference Example 29] , what is its reported melting point?
Response: 182 to 185 °C

Source of measurements: patent US9346822B2
